# experimentalTarget: human PD-L1 (cell surface) (human, UniProt Q9NZQ7)
# Sequence (Q9NZQ7 19-238): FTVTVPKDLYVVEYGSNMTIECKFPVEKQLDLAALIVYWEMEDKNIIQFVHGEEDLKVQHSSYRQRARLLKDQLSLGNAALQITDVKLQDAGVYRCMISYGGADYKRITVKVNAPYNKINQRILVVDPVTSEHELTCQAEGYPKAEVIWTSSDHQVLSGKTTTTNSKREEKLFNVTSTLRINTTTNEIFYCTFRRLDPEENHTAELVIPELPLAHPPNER
# protocolText: FACS, NCI-H441 cells
pEC50: −log10 of the molar value.
Binary classification by pEC50, with 10 as an inclusive lower bound for yes (1); all other cases are no (0).

Here's what some known entries look like.
>  <binder>
4D2-hv3-NT (antibody, V domains shown) VH: QVQLVESGGGLVKPGGSLRLSCAASGFSASDVVMAWYRQAPGKQREFVSNLGASSTTYYADSVKGRFTISRDNAKNSLYLQMNSLRAEDTAVYYCNALVWTGSSYNNWGQGTQVTVSS

>  <assignedClass>
no (0)

$$$$
>  <binder>
4D2-Alpaca-NT (antibody, V domains shown) VH: QVQLVESGGGLVQAGGSLRLSCAASGFSASDVVMAWYRQAPGKQREFVANLGASSTTRYADSVKGRFTISRDDAKNTVSLQMNSLKSEDTAVYYCNALVWTGSSYNNWGQGTQVTVSS

>  <assignedClass>
yes (1)

$$$$
>  <binder>
4E2-hv1-NT (antibody, V domains shown) VH: EVQLVESGGGLVKPGGSLRLSCAASGFSAGDVVMAWYRQAPGKQREFVANIAASSTTRYADSVKGRFTISRDNAKNSLYLQMNSLRAEDTAVYYCNALVWTGSSYNNWGQGTQVTVSS

>  <assignedClass>
yes (1)

$$$$

Now look at this one.
Does pEC50 meet or surpass 10 for 4E2-Alpaca-NT (antibody, V domains shown) VH: EVQLVESGGGSVQDGGSLTLSCAASGFSAGDVVMAWYRQAPGKQREFVANIAASSTTRYTDSVKGRFTISRDNAKNTVYLQMNSLKSEDTAVYYCNALVWTGSSYNNWGQGTQVTVSS ?
yes (1)
